- System: M14 melanoma
- method notes: NCI tumour cell line growth inhibition, 48 h
Quick reference for TGI among some compounds

>  <compound>
O=Cc1cc2c(cc1-c1c(C=O)ccc3c1OCO3)OCO2

>  <TGI>
> 10 µM

$$$$
>  <compound>
COC(=O)C(C)(NC(=O)C(CC(=O)OC(C)(C)C)NC(=O)OC(C)(C)C)c1ccccc1 (stereo not given)

>  <TGI>
> 100 µM

$$$$
>  <compound>
CCOP(=O)(Cc1ccc(CP(=O)(OCC)OCC)n1C)OCC

>  <TGI>
> 100 µM

$$$$
>  <compound>
CCCCCCCCCCCCCCCCCCNc1ccn(C2OC(COP(=O)(O)OCC3OC(n4cc(C)c(=O)[nH]c4=O)CC3O)C(O)C2O)c(=O)n1 (stereo not given)

>  <TGI>
30.7 µM

$$$$
>  <compound>
CNC(=S)NC1CCCCC1NC(=S)NC (stereo not given)

>  <TGI>
> 100 µM

$$$$

----------
- Test system: OVCAR-8 ovarian
- method notes: NCI tumour cell line growth inhibition, 48 h
Quick reference for TGI among some compounds

>  <compound>
CCCCCCCCCCCCCCCCCCNc1ccn(C2OC(COP(=O)(O)OCC3OC(n4cc(C)c(=O)[nH]c4=O)CC3O)C(O)C2O)c(=O)n1 (centres undefined)

>  <TGI>
31.6 µM

$$$$
>  <compound>
O=C1c2ccccc2C2(Br)C(=O)c3ccccc3C12 (centres undefined)

>  <TGI>
> 100 µM

$$$$
>  <compound>
C=C(C=O)[C@@H]1C2OC(=O)C(=C)[C@@H]2CC(O)[C@@]1(C)CC (some centres undefined)

>  <TGI>
20.4 µM

$$$$
>  <compound>
Cn1c(=O)c2c(nc(Nc3cc(=O)[nH]c(=O)[nH]3)n2Cc2ccccc2)n(C)c1=O

>  <TGI>
> 100 µM

$$$$
>  <compound>
O=C(O)c1n[nH]nc1Cl

>  <TGI>
> 100 µM

$$$$
>  <compound>
NC(CCCCP(=O)(O)O)C(=O)O (centres undefined)

>  <TGI>
> 100 µM

$$$$
>  <compound>
CC(=O)Nc1ccc(C(=O)NN2C(=O)C(Cl)C2c2ccccc2)cc1 (centres undefined)

>  <TGI>
> 100 µM

$$$$
>  <compound>
Cc1nnc(S(=O)(=O)c2ccc(N=Nc3c(N)nc(N)nc3N)cc2)s1

>  <TGI>
> 100 µM

$$$$
>  <compound>
Clc1coc2nc3ccccc3c(Nc3ccc4c(c3)OCO4)c12

>  <TGI>
21.2 µM

$$$$
>  <compound>
CC(=O)NC1C(OCc2ccccc2)OC(CO)C(O)C1OC(C)C(=O)NC(C)C(=O)NC(CCC(=O)NCCCNc1c2ccccc2nc2cccc([N+](=O)[O-])c12)C(N)=O (centres undefined)

>  <TGI>
9.07 µM

$$$$
>  <compound>
COc1ccc(C(C)NNC(=O)c2ccncc2)c(OC)c1 (centres undefined)

>  <TGI>
> 100 µM

$$$$
>  <compound>
S=C(N/N=C/c1ccco1)NC12CC3CC(CC(C3)C1)C2

>  <TGI>
> 100 µM

$$$$
>  <compound>
COc1ccc(CC2c3cc(Oc4cc(CC5c6cc(OC)c(OC)cc6CCN5C)ccc4O)c(OC)cc3CCN2C)cc1 (centres undefined)

>  <TGI>
13.4 µM

$$$$
>  <compound>
Cc1cc(Br)cc(C)c1NC(=O)C(=O)C(C(=O)c1ccc2ccccc2c1)C1OC(=O)c2ccccc21 (centres undefined)

>  <TGI>
22.8 µM

$$$$
>  <compound>
C=C(C)C(CC=C(C)C)CC12CC(CC=C(C)C)C(C)(C)C(CC=C(C)C)(C(=O)C(Cc3ccc(O)c(O)c3)=C1O)C2=O (centres undefined)

>  <TGI>
> 100 µM

$$$$
>  <compound>
CNn1c(-c2ccccc2)n[nH]c1=O

>  <TGI>
> 100 µM

$$$$
>  <compound>
O=[N+]([O-])c1ccc(C=C2C(Cl)=C(Cl)C(Cl)=C2Cl)cc1

>  <TGI>
5.28 µM

$$$$
>  <compound>
NC(=NCCCOc1ccc(Cl)cc1)Nc1ccc(C(F)(F)F)cc1

>  <TGI>
6.05 µM

$$$$
>  <compound>
N#C/C(C(=O)Nc1ccccc1)=C(/N)N1CCOCC1

>  <TGI>
> 100 µM

$$$$
>  <compound>
C=C(CCCCC)CN1CCCC1[C@@](C)(O)CC(=O)OCC (some centres undefined)

>  <TGI>
> 100 µM

$$$$
>  <compound>
CNC(=S)NC1CCCCC1NC(=S)NC (centres undefined)

>  <TGI>
> 100 µM

$$$$
>  <compound>
COc1ccc(/C=C(/C(=O)c2ccc(Cl)cc2)N2C=CC=CC2=C(C#N)C#N)cc1OC

>  <TGI>
16.1 µM

$$$$
>  <compound>
CSc1nc2c(nc(C)c(=O)n2C2OCC(OC(C)=O)C(OC(C)=O)C2OC(C)=O)c(=O)[nH]1 (centres undefined)

>  <TGI>
> 100 µM

$$$$
>  <compound>
CC1CC=CC(O)C1 (centres undefined)

>  <TGI>
> 100 µM

$$$$

Reference source: PubChem BioAssay (NCI)
